Tested on: A549/ATCC NSCLC
Experiment: NCI-60 one-dose screen, 48 h
Settings: 10 µM unless noted
Procedure: Growth inhibition of the A549/ATCC human Non-Small Cell Lung tumor cell line is measured as a screen for anti-cancer activity. Cells are grown in 96 well plates and exposed to the test compound for 48 hours. Compounds are tested at a single concentration, which is 10^-5 M for most compounds. The reported endpoint is percent growth (GI% or GIPRCNT), where numbers from 0 - 100% represent growth inhibition, and numbers from -100% - 0 represent cell death. […]
This is part of a sample that, as a whole, favours compounds with a hit. Of some 83,000 tested, about 20% had one in any assay. Active and inactive are the calls of the source. How the source made its calls: active means growth percent below 10; inactive means the rest.
Classes used: active, inactive

[[record]]
smiles_text = "O=C(Nc1ccc2c(c1)OCCO2)C(=O)c1c[nH]c2ccccc12"
target_of_assay = "A549/ATCC NSCLC"
class = "inactive"

[[record]]
smiles_text = "COc1ccc(S(=O)(=O)NCCCNc2nccc(-c3c(-c4cccc([N+](=O)[O-])c4)nc4sccn34)n2)cc1"
target_of_assay = "A549/ATCC NSCLC"
class = "inactive"

[[record]]
smiles_text = "O=C(Nc1ccncc1)C(=O)c1cn(S(=O)(=O)c2ccc(Br)cc2)c2ccccc12"
target_of_assay = "A549/ATCC NSCLC"
class = "inactive"

[[record]]
smiles_text = "Cc1ccc(Nc2nnc(-c3ccc(Cl)cc3)o2)c(C)c1"
target_of_assay = "A549/ATCC NSCLC"
class = "inactive"

[[record]]
smiles_text = "CC(C)(C)OC(=O)NCCc1ccc(N=C=S)cc1"
target_of_assay = "A549/ATCC NSCLC"
class = "inactive"

[[record]]
smiles_text = "Cc1ccc(S(=O)(=O)NCCNc2cc(-c3cn(C(C)(C)C)nc3-c3cccc(O)c3)ccn2)cc1"
target_of_assay = "A549/ATCC NSCLC"
class = "inactive"

[[record]]
smiles_text = "CC[N+](CC)=c1cc2oc3cc(N(C)C)ccc3nc-2cc1C"
target_of_assay = "A549/ATCC NSCLC"
class = "inactive"

[[record]]
smiles_text = "N/C(=N\\C(N)=N\\c1nc2ccccc2s1)c1cccc(Br)c1"
target_of_assay = "A549/ATCC NSCLC"
class = "active"

[[record]]
smiles_text = "O=C(O)c1nc(-c2ccccc2)oc1N1CCOCC1"
target_of_assay = "A549/ATCC NSCLC"
class = "inactive"

[[record]]
smiles_text = "CN1CCN(Cc2ccc(NC(=O)c3nc4ccc5[nH]ncc5c4c4c3CCC4)cc2C(F)(F)F)CC1"
target_of_assay = "A549/ATCC NSCLC"
class = "active"


* * *

system: HT29 colon; assay: NCI-60 one-dose screen, 48 h; details: 10 µM unless noted
This is part of a sample that, as a whole, favours compounds with a hit. Of some 83,000 tested, about 20% had one in any assay. Calls of active or inactive are those of the source. The calls were made as follows: active = growth percent below 10; inactive = the rest.
Classes used: true = active, false = inactive

[[record]]
compound = "COc1ccc(-c2nc3sc(-c4cc(OC)c(OC)c(OC)c4)nn3c2/C=C2/C(=O)Nc3ccc(F)cc32)cc1"
class = "true"

[[record]]
compound = "O=S(=O)(NCCNc1nccc(-c2c(-c3ccc(F)cc3)nc3sccn23)n1)c1ccc(F)cc1"
class = "false"

[[record]]
compound = "C=C1CC2(OC1=O)C(=O)N(CCCN1C(=O)C3(CC(=C)C(=O)O3)c3ccccc31)c1ccccc12 (centres undefined)"
class = "true"

[[record]]
compound = "Brc1ccc(-c2[nH]ncc2-c2c[nH]c3ccccc23)cc1"
class = "false"

[[record]]
compound = "CCCCNC(=O)Oc1ccc(/C(=C(\\C)c2ccccc2)c2ccc(OCCN(CC)CC)cc2)cc1"
class = "true"

[[record]]
compound = "Cc1cc(N)n(S(=O)(=O)c2oc(-c3ccccc3)nc2C#N)n1"
class = "false"

[[record]]
compound = "c1cc2[nH]ncc2cc1-c1nc2ccc3[nH]ncc3c2c2c1CCC2"
class = "false"

[[record]]
compound = "CCN1CCN(CC(=O)N2c3cccc4cccc(c34)N(C(=O)CN3CCN(CC)CC3)C2c2cn(-c3ccccc3)nc2-c2cccc([N+](=O)[O-])c2)CC1"
class = "true"

[[record]]
compound = "Clc1cccc(-c2cc(-c3ccc4c(c3)OCCO4)[nH]n2)c1"
class = "true"


The reported measurements were obtained from PubChem BioAssay (NCI).
